Provide the recorded fold over background MFI for the entries that follow.
molecular target: T1, human Prostate Specific Membrane Antigen (PSMA) (human, UniProt Q04609 1-750); test: flow cytometry on LNCaP cells
T1 construct: whole, on cells; also called Glutamate Carboxypeptidase II; FOLH1
T1 sequence (Q04609 whole entry): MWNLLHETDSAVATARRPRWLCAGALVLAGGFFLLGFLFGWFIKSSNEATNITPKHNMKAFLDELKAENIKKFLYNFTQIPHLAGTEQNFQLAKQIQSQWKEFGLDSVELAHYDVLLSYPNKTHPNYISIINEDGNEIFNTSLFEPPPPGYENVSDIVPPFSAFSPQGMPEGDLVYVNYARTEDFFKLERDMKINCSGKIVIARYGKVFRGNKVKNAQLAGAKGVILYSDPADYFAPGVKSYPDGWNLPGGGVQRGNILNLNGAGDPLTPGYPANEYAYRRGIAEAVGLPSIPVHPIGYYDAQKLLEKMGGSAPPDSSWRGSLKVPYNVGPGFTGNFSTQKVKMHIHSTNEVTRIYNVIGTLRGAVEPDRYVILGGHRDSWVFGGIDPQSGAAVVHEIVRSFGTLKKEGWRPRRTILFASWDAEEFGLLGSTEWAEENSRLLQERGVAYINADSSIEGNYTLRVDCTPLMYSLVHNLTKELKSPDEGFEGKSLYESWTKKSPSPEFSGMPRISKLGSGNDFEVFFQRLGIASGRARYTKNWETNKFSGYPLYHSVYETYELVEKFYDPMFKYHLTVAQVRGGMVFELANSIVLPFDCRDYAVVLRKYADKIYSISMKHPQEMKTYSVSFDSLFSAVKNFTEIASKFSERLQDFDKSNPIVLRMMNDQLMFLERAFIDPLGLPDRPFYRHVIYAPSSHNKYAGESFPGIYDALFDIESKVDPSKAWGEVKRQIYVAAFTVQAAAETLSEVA
Numbers only, in fold over background.

Consider the worked cases shown below.
binder="anti-PSMA heavy-chain antibody (HCAb) clone ID 345443 (antibody, V domains shown, Heavy chain-only antibody (UniAb)) VH: QVQLVESGGGVVQPGRSLRLSCAASGFSFSSYGMHWVRQAPGKGLEGVAVIWYDGSNRYYADSVKGRFTISRDNSKNTLFLQMNSLRAEDTAVYYCAREPRIGYYYESSGYYSLDYRGQGTLVTVSS" unit_annotation="fold over background" measurement=84
binder="anti-PSMA heavy-chain antibody (HCAb) clone ID 345482 (antibody, V domains shown, Heavy chain-only antibody (UniAb)) VH: QVQLVESGGGVVQPGRSLRLSCAASGFSFSSYGMHWVRQAPGKGLEGVAVIWYDGSNRYYADSVKGRFTISRDSSKNTLYLQMNSLRAEDTAVYYCAREPRIGYYYESSGYYSLDYRGQGTLVTVSS" unit_annotation="fold over background" measurement=80
binder="anti-PSMA heavy-chain antibody (HCAb) clone ID 345421 (antibody, V domains shown, Heavy chain-only antibody (UniAb)) VH: QVQLVESVGGVVQPGRSLRLSCAASGFSFSSYGMHWVRQAPGKGLEGVAVIWYDGSNRYYADSVKGRFTISRDNSKNTLYLQMNSLRAEDTAVYYCAREPRIGYYYESSGYYSLDYRGQGTLVTVSS" unit_annotation="fold over background" measurement=22

--- query ---
INPUT: // fetch fold over background MFI given entry anti-PSMA heavy-chain antibody (HCAb) clone ID 325920 (antibody, V domains shown, Heavy chain-only antibody (UniAb)) VH: QLQLQESGPGLVKPSETLSLTCTVSGGSISSSSYYWGWIRQPPGKGLEWIGSIDYSGYTYYNPSLQSRVTISVDTSKNQFSLKLSSVTAADTAVYNCARHKAATADFDYRGQGTLVTVSS
OUTPUT: 282
